- Experiment summary: qHTS profiling for inhibitors of Plasmodium falciparum proliferation (AID 504749);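 further: 0% = DMSO vehicle and full inhibition = artemisinin control; nearly all actives have a fitted effect of over 60% in size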
- Condition info: P. falciparum in erythrocytes, SYBR Green DNA, 72 h; at 28.7 µM (top of the series); parasite line A
Results filed as inconclusive are left out.
Overview of recorded activity, negative = inhibition for various compounds
Reply numerically in %, unit not repeated.

Take a look at these entries with their results.
Compound	Endpoint result
CC1(C(=O)O)CCC2(C)CCC3(C)C(=CC(=O)C4C5(C)CCC(O)C(C)(C)C5CCC43C)C2C1 (stereo not drawn)	8.05
CC(=O)OCC(=O)[C@@]1(O)CCC2C3CCC4=CC(=O)C=CC4(C)C3C(O)C[C@]21C (stereo partly drawn)	8.28
Nc1nc(Cl)nc2c1ncn2[C@@H]1O[C@H](CO)[C@H](O)C1F (stereo partly drawn)	-2.17
C[C@H](CN1c2ccccc2Sc2cccnc21)N(C)C	-16.9
OCC1O[C@H](O[C@H]2C(O)C(O)C(O)O[C@@H]2CO)C(O)C(O)C1O (stereo partly drawn)	7.88
CCCCC(=O)O[C@]1(C(=O)CO)CCC2C3CCC4=CC(=O)CCC4(C)C3C(O)CC21C (stereo partly drawn)	-2.08
C=C1[C@@H]2CC[C@H](C2)C1(C)C	10.4
C=C1C(n2cnc3c(=O)[nH]c(N)nc32)C[C@H](O)[C@H]1CO (stereo partly drawn)	9.61

Exam item: What measured activity, negative = inhibition goes with `Cc1ccccc1N1C(=O)c2cc(N)ccc2N/C1=C\F` ?
Marked response: -6.61

Exam item: What activity, negative = inhibition value was documented for this compound, `CCN(CC)C(=O)[C@@]1(c2ccccc2)C[C@@H]1CN` ?
Marked response: 3.47

----------
- Target or test system: Cytochrome P450 1A2 (Homo sapiens)
- Experiment summary: p450-cyp1a2 (AID 410)
- Condition info: recombinant CYP1A2, luciferin-ME demethylation, luminescence; series mostly up to 57 µM
- Procedure: The P450 gene superfamily is involved in metabolism and the clearance of xenobiotics. This assay used human CYP1A2 to measure the demethylation of luciferin 6' methyl ether (Luciferin-ME; Promega-Glo) to luciferin. The luciferin is then measured by luminescence after the addition of a luciferase detection regeant. Luciferin-ME concentration in the assay was equal to its Km for CYP1A2. NCGC Assay Protocol Summary: […]
Results filed as inconclusive are left out. Calls of active or inactive are those of the source. Calls follow the shape of the full dose curve.
Reply using exactly one outcome from True for active, False for inactive

Worked set:
Molecule	Qualitative label
C[C@H](CO)NC(=O)[C@H]1C[C@@H]1[C@H](NP(=O)(c1ccccc1)c1ccccc1)c1ccccc1	False
C/C=C\C[C@H](C)[C@H](O)[C@H]1C(=O)N[C@@H](CC)C(=O)N(C)CC(=O)N(C)[C@@H](CC(C)C)C(=O)N[C@@H](C(C)C)C(=O)N(C)[C@@H](CC(C)C)C(=O)N[C@@H](C)C(=O)N[C@@H](C)C(=O)N(C)[C@@H](CC(C)C)C(=O)N(C)[C@@H](CC(C)C)C(=O)N(C)[C@@H](C(C)C)C(=O)N1C	False
C[C@@H](C(=O)Cc1ccc2ccccc2c1)[C@@H]1C[C@@]1(C)[C@@H](NP(=O)(c1ccccc1)c1ccccc1)c1ccccc1	True
COC(=O)C1CC1C(NC(=O)[C@H]1CCCCN1)c1ccccc1 (stereo partly specified)	False

Exam item: Please state the recorded outcome for this molecule: `O=C(N[C@@H](c1ccccc1)[C@@H]1C[C@H]1C(=O)NCc1ccccn1)OCc1ccccc1`
Marked response: True

Exam item: Record lookup: outcome of this test for CCCC/C=C/C(NC(=O)c1cccs1)c1ccccc1 (stereo unspecified) ?
Marked response: True

Exam item: Assay result, entry `CCCCCCCCCCCCCCCCCC(=O)O[C@H](CC(=O)O)C[N+](C)(C)C` — outcome?
Marked response: False

Exam item: Which outcome did this test record for the molecule CCCC[C@@H]1C[C@H]1C(NC(=O)c1ccccc1)c1ccccc1 (stereo partly specified) ?
Marked response: True

Exam item: State the result this test recorded for COC(=O)C1(Cc2ccccc2)C2c3cc(C(=O)N4CCCC4)n(Cc4ccc(OC(F)(F)F)cc4)c3CC2CN1C(=O)c1ccccc1 (stereo unspecified) .
Marked response: False

----------
- Experiment summary: qHTS profiling for inhibitors of Plasmodium falciparum proliferation (AID 504749);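 further: 0% = DMSO vehicle and full inhibition = artemisinin control; nearly all actives have a fitted effect of over 60% in size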
- Condition info: P. falciparum in erythrocytes, SYBR Green DNA, 72 h; at 28.7 µM (top of the series); parasite line A
- Protocol: NIH National Institute of Allergy and Infectious Diseases [NIAID] NIH Chemical Genomics Center [NCGC] […] Because mature erythrocytes lack DNA, only Plasmodium-derived DNA is detected. NCGC Assay Protocol Summary: The SYBR Green viability assay was adapted from a method described previously (Plouffe et al., 2008). […] The following morning, fluorescence intensity at 485(14) nm excitation and 535(25) nm emission wavelengths was measured on an EnVision (Perkin Elmer) plate reader. […]
Results filed as inconclusive are left out.
Quantity name: activity, negative = inhibition (%)
Numeric only. Scale: %

Compound	activity, negative = inhibition [%]
CC1(Cn2ccnn2)[C@H](C(=O)O)N2C(=O)C[C@H]2S1(=O)=O (stereo not given in full)	4.59
CC1CCC(C(C)C)C(O)C1 (stereo not given)	7.33
O=C(O)Cc1sc(-c2ccc(Cl)cc2)nc1-c1ccccc1	4.11

Alright, here's another compound for you.
Exam item: Quick one: activity, negative = inhibition for CCCCN1CC(O)C(O)C(O)C1CO (stereo not given) ?
Marked response: 0.477

----------
Catalogue of activity change, negative = inhibition values
- Experiment summary: NFAT Signaling Pathway (AID 444);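 further: carbachol stimulus at about its EC50 of 1 µM final; on the % scale 0 is the no-effect control and ±100 the full control effect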
- Condition info: Jurkat NFAT-bla M1, carbachol, beta-lactamase ratio, 5 h; at 17.2 µM (top of the series) unless noted
Records with an inconclusive call do not appear.
Just the number please, in %, no unit attached.

Exam item: Fill in the blank: the reported activity change, negative = inhibition of `Clc1cccc(-c2nn3c(COc4ccccc4)nnc3s2)c1` is ____.
Marked response: -0.831

----------
- Target or test system: Ubiquitin carboxyl-terminal hydrolase 1 (Homo sapiens) (UniProt O94782)
- Sequence (O94782 whole entry, looked up): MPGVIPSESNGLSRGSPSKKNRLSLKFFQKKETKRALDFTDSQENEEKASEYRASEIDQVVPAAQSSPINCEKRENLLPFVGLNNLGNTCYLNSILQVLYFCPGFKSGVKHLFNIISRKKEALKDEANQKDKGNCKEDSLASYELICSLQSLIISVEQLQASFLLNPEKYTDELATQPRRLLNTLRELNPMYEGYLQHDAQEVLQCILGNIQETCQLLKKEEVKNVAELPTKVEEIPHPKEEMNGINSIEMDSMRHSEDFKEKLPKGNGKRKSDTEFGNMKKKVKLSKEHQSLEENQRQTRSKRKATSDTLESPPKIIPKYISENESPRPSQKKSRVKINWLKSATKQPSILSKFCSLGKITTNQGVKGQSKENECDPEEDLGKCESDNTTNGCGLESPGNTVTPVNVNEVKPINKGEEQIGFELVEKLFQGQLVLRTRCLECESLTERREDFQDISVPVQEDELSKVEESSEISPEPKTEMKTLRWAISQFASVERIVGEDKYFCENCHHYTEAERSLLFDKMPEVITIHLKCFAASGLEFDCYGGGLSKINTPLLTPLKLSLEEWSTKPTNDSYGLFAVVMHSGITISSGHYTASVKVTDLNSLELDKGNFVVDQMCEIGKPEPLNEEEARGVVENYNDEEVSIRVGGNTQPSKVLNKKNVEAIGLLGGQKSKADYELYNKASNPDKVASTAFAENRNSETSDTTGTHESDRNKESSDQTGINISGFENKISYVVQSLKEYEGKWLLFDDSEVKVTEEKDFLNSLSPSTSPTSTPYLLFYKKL
- Experiment summary: Inhibitors of USP1/UAF1: Pilot qHTS (AID 504865); further: nearly all actives have a fitted effect of over 35% in size
- Condition info: purified USP1/UAF1, Ub-rhodamine cleavage fluorescence; series mostly up to 114 µM
Records with an inconclusive call do not appear. Active and inactive are the calls of the source. The call rests on the fitted dose curve; in most records, active means well fitted inhibition curve with a large enough effect; inconclusive means small, poorly fitted or top-dose-only effect; inactive means flat fitted curve, though single readings scatter.
The reply should be one of these categories: active, inactive

Compound	Qualitative label
CCCCN1CC(O)C(O)C(O)C1CO (centres undefined)	inactive
Cc1ccc(Nc2ncccc2C(=O)O)cc1C	inactive
CCN(CC)CC(=O)Nc1c(C)cc(C)cc1C	inactive

Exam item: Returns: the outcome recorded for CC(C)(C)C(=O)OCC(=O)C1CCC2C3CCC4=CC(=O)CCC4(C)C3CCC12C (centres undefined) in this assay.
Marked response: inactive

Exam item: How did this test come out for `O=C(OC[C@@H]1O[C@@](O)(COC(=O)c2cccnc2)[C@H](OC(=O)c2cccnc2)[C@H]1OC(=O)c1cccnc1)c1cccnc1` ?
Marked response: inactive

Exam item: Field: outcome | Entry: Cc1cc2nc3c(=O)[nH]c(=O)nc-3n(CC(O)C(O)C(O)COP(=O)(O)O)c2cc1C (centres undefined)
Marked response: active

Exam item: Which outcome was entered for the compound CC1(C)SC2[C@@H](N=CN3CCCCCC3)C(=O)N2[C@H]1C(=O)O (some centres undefined) in this test?
Marked response: inactive

Exam item: Field: outcome | Entry: CC1OC(OCC2OC(Oc3c(-c4ccc(OCCO)c(OCCO)c4)oc4cc(OCCO)cc(O)c4c3=O)C(O)C(O)C2O)[C@@H](O)C(O)C1O (some centres undefined)
Marked response: inactive

----------
- Experiment summary: Stat Signaling Pathway (AID 446);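 further: ME-180 cervical cancer cells given 40 pM IL-6 alongside compound; SIE-controlled beta-lactamase reporter measured as 460/530 nm FRET emission ratio; on the % scale 0 is the no-effect control and ±100 the full control effect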
- Condition info: ME-180 (cervical carcinoma) SIE beta-lactamase reporter, IL-6 stimulated, 5 h; at 17.2 µM (top of the series) unless noted
Records with an inconclusive call do not appear. Activity calls are given as the source filed them. Calls come from the whole dose curve; as a rule, active = well fitted curve in either direction with a large enough effect (not every such curve was filed as active); inconclusive = small, poorly fitted or top-dose-only effect, or another doubt; inactive = flat fitted curve, though single readings scatter.
Items are presented alongside their recorded activity, negative = inhibition.

Molecule	Quantity name	Endpoint result
Cc1ccc(S(=O)(=O)N2CCC(N3CCCCCC3)CC2)cc1	activity, negative = inhibition	10.2% (inactive)

Exam item: What value of activity, negative = inhibition has been recorded for this entry: `CCN1CCc2c(C#N)c(N3CCCCC3)nc(NCc3ccccc3)c2C1`
Marked response: 5.55% (inactive)

Exam item: // activity, negative = inhibition lookup, key: `C=CCn1c(SCC(=O)c2ccccc2)nnc1-c1ccc2c(c1)OCO2`
Marked response: -9.25% (inactive)

Exam item: State the recorded activity, negative = inhibition for this entry: `COc1ccccc1-c1cc(-c2cc(Cl)ccc2O)n[nH]1`
Marked response: 8.92% (inactive)

Exam item: Please report the recorded activity, negative = inhibition for `CCCCCCCCCCCCCCCCCCOC[C@@H](COP(=O)([O-])OCC[N+](C)(C)C)OC` .
Marked response: 4.35% [at 38 µM] (inactive)

Exam item: Quick check: activity, negative = inhibition of `CC(=O)Nc1ccc(Oc2ccc3nc(C)[nH]c3c2)cc1` ?
Marked response: -5.58% (inactive)

Exam item: Recorded activity, negative = inhibition for `CCCCNC(=O)c1c(N)n(/N=C/c2cccnc2)c2nc3ccccc3nc12` , please?
Marked response: 16.8% (inactive)

Exam item: Fill blank: measured activity, negative = inhibition of the molecule `COc1ccc(CSc2nnc(C)n2N)cc1Br` is ____.
Marked response: 8.37% (inactive)

Exam item: What value of activity, negative = inhibition has been recorded for this entry: `CCNCc1cc2cc(C)ccc2[nH]c1=O`
Marked response: 2.05% (inactive)

Exam item: Find the recorded activity, negative = inhibition belonging to `C=CCNc1sc(C(=O)C2CC2)c(N)c1C#N` and report it.
Marked response: -6.27% (inactive)

Exam item: // query activity, negative = inhibition value for entry OC(CNCCCN1CCCCC1)COc1ccccc1 (configuration not stated)
Marked response: 9.93% (inactive)

Exam item: Which activity, negative = inhibition is reported for this molecule? `Cc1cc(C(=O)O)c(CSc2ncn[nH]2)o1`
Marked response: 8.82% (inactive)
